# Procedure summary: probe aLAP1 signal on lysate-treated microarray – cell lysate, small-molecule microarray, COS7 lysate, primary screen (AID 1124);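 also: lysate comes from COS7 cells expressing LAP1 and is applied at 0.3 µg/mL; score merges spot fluorescence near 667 nm with signal-to-noise over triplicate slides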
# Cond: probe aLAP1, fluorescence, higher = more signal
The following ranges of composite z-score define the classes used here: lowest = under 0.3, middle = from 0.3 up to 0.7, highest = 0.7 and over

These recorded examples may help you get a feel for the data.
molecule=O=c1cccc(-c2ccccc2)o1 assigned_category=lowest
molecule=C=CCOC(=O)[C@@H]1[C@H]2C(=O)O[C@H](c3ccccc3)[C@H](c3ccccc3)N2[C@H](c2ccc(OCCOC(=O)[C@H]3C[C@H]4C(=O)N[C@@H](Cc5ccccc5)C(=O)N4[C@H]3c3ccc(O)cc3)cc2)[C@@]12C(=O)Nc1ccc(I)cc12 assigned_category=highest
molecule="O=C1C2C=CC(C(O)CCc3ccccc3)N(Nc3ccccc3)C2C(=O)N1c1ccccc1 (configuration not stated)" assigned_category=highest
molecule=Cc1ccc(N2C(=O)c3ccccc3[C@@H](C(=O)NCC(C)C)[C@@H]2c2ccc(CO)cc2)nc1 assigned_category=middle
molecule=[N-]=[N+]=NCc1ccccc1[C@@H]1OC(c2ccc(OCCCO)cc2)=N[C@]1(Cc1ccccc1N=[N+]=[N-])C(N)=O assigned_category=lowest

Class (by measured composite z-score) for CN1C(=O)C2C=CC(C(O)C(c3ccccc3)c3ccccc3)N(Nc3ccccc3)C2C1=O (configuration not stated)
lowest

Class (by measured composite z-score) for O=C(NCC(O)CO)[C@]1(CCS(=O)(=O)c2ccccc2)N=C(c2ccc(OCCCO)cc2)O[C@@H]1c1ccccc1 (some centres not stated)
highest

Class (by measured composite z-score) for "COc1ccc([Si](C)(C)[C@H]2[C@H](CC(=O)N3CCC[C@H]3CO)O[C@@]3(C(=O)N(Cc4cccc(N5CCC5=O)c4)c4ccccc43)[C@@H]2C)cc1"
lowest

Class (by measured composite z-score) for "CCCNC(=O)[C@@]1(C)c2ccccc2C(=O)N(Cc2cc(C(F)(F)F)cc(C(F)(F)F)c2)[C@H]1c1ccc(CO)cc1"
middle

Class (by measured composite z-score) for "CC(C)CNC(=O)[C@@]1(C)c2ccccc2C(=O)N(C(C)C)[C@H]1c1ccc(CO)cc1"
lowest

====

# System: Noggin (protein binding on small-molecule microarray)
# Procedure summary: small molecules binding Noggin protein – biochemical, 635/667 nm fluorescence, primary screen (AID 1095);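 also: score merges 667 nm feature fluorescence with signal to noise over triplicate slides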
# Cond: 635 nm fluorescence, higher = more signal
Experimental endpoint: composite z-score
Quick one: just the number, no unit, thanks!

molecule=COCCOC(=O)N1C(=O)[C@@]2(c3cc(C#CC4(O)CCCCCC4)ccc31)[C@H](c1ccc(O)cc1)N1[C@H](c3ccccc3)[C@H](c3ccccc3)OC(=O)[C@H]1[C@@H]2C(=O)N1CCc2cc(OC)c(OC)cc2C1 val=-0.435
molecule=CCCNC(=O)[C@@]1(C)c2ccccc2C(=O)N(C(C)C)[C@H]1c1ccc(CO)cc1 val=-0.827
molecule=C=C(COC)/C(=C/C[C@H](OC(C)=O)c1ccccc1OCCO)c1cnc2ccccc2c1 val=0.556
molecule=[N-]=[N+]=Nc1ccccc1[C@@H]1OC(c2ccc(OCCCO)cc2)=N[C@]1(CCS(=O)(=O)c1ccccc1)C(=O)O val=0.61
molecule="CCCCN1CC=CC23O[C@@H]4/C=C\\CCCOC(=O)C4[C@H]2C(=O)N(C(C)CO)[C@@H]3C1=O (some centres not stated)" val=0.16
molecule="O=C1OCC=C[C@H]2OC34C=CCN(CCN5CCOCC5)C(=O)[C@H]3N(CCCCCCO)C(=O)[C@@H]4[C@@H]12 (some centres not stated)" val=0.0056

Proceed to the following item.
Item "COCCCNC(=O)[C@@]1(Sc2ccc(C)cc2)CC(=O)N(Cc2ccccc2)[C@@H]1c1ccc(CO)cc1" has what recorded composite z-score?
-0.408
